Test: pH profile of enzymes on 1 mM ATP
Format: biochemical
Details: 50 mM trisodium citrate/citric acid, 5 mM CaCl2, relative to the highest value
measured-attribute: Relative activity on ATP, pH 5.5
One number for each entry.

Some molecules with known Relative activity on ATP, pH 5.5 results, for comparison:
molecule	Relative activity on ATP, pH 5.5
CRC25085: Acid phosphatase (Class A), accession WP_092747651.1, SEQ ID NO:21 (protein, listed as Acinetobacter boissieri) LEQSNSFLQLAQVPDSLAIVPAPPAYNSVDFLRDKAAYDQAKSLVGTERWKVAAEDADLSDANIGKPFSQALGIEISPQNTPITYEILRKLRTDAGNYATKAAKEHYMRLRPFMFFNSHTCTPNDEANLSKNGAYPSGHTTIGWSSALVLAEIRPERQNEILQRGYEYGQSRVICGVHWQSDVDAGRITGSAIVARLHADKAFTKMLEEAKQEIQRKTK	1.0
CRC25082: Acid phosphatase (Class A), accession WP_050460978.1, SEQ ID NO:19 (protein, listed as Herbaspirillum autotrophicum) KGAAGFLNGQTAPDSLAILPPPPAEDSVAFQADKAQYETGHVLRDPERVEQARQDADYRNFGHAFSAAFGMEISATHTPVLYQLLTEVLQDSHDYAMKAAKNHYKRVRPFVVYKDPTCTPGQDEKMALSGSYPSGHASFGWAAALVLAEINPARQTEILQRGYAFGKSRVICGAHWQSDVDNGQLMGAAVVAALHSNSQFAAALNAAKNEFAGLRAQDNKK	0.7
CRC25099: Acid phosphatase (Class A), accession WP_195761705.1, SEQ ID NO:23 (protein, listed as Pantoea sp.) LQSSGFLTAETAPDSLAILPPPPAENSVTFQSDKAQYEAGHVLRNVARTELASKDADYKNFGQAFSAAFGMEISESHTPVLYHLLSEVLQDSHDFAMRGAKDHYKRVRPFVIYKDSTCTPDKDKSMSTTGSYPSGHASFGWAAALILAEINPSRETEIIRRGYDFGESRVVCGAHWQSDVENGRIMGATVVASLHANAKFAELLSQAKNEFATLSAQDSK	1.0
CRC25089: Acid phosphatase (Class A), accession WP_217352265.1, SEQ ID NO:22 (protein, listed as Paraburkholderia bonniea) AGSDGFLTAETAPSSLAILPPPPAENTVAFLNDKANYEIGRSLKNDARVALAASDANCKNINAIFSSAFGREISEEKTPKLYRLLLGVLQDSHDHAMKSAKNHYMRVRPFVMYGDKTCTPEEDNKMKNTGSYPSGHASFGWAAALVLSEINPERTTEILRRGYDFGQSRVVCGAHWQSDVDNGRLMGAAVVADLHNNDKFIKALEAAKAEFKENTPGN	0.7
CRC25100: Acid phosphatase (Class A), internal database, SEQ ID NO:24 (protein, environmental sample) GENSGFLSPETSPNSLEILPPPPSEGSIAFLNDKANYDIGHTLKNEGRLAQAVSDANYKNLTDAFSKAFGETISEQNTPALYSLLQNVLQDSHDFAMRAAKDHYKRVRPFVIYKDHTCTPAEDTKMAKTGSYPSGHASFGWATALVLSEINPARETEILKRGYEFGQSRVICGAHWQSDVDSGRIMGAAVVASLHNNSDFISALAKAKEEFRKK	1.0

# next molecule below
[Q] Fill blank: measured Relative activity on ATP, pH 5.5 of the molecule CRC25084: Acid phosphatase (Class A), accession WP_088823167.1, SEQ ID NO:20 (protein, listed as Acinetobacter apis) ADSNNSFLQLNQVPDSLKIVPAPPAFNSVDFLRDKAAYDQARSLVGTARWQQAAVDADLSDANIGKSFSEAFGVEISPTNTPVTYEILRKLRTDAGGYATKTAKEHYMRMRPFVFFNSHTCTPNDEASLSKNGAYPSGHTTIGWSSALILAEIRPDRQNEILERGYQYGQSRVICGVHWQSDVDAGRITGSAIVARLHADKDFAKTLEDAKREIQKKIK is ____.
[A] 1.0
